B1: NCF4 (parent)
chain: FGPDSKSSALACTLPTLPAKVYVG

Variants of: B1
Experiment: protein stability index of a GFP-peptide fusion (GPS, HEK-293T) (PSI 1-6); higher = more stable;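 note: lentivirally expressed fusions sorted by FACS into six bins by GFP to DsRed ratio, PSI derived from sequencing read proportions per bin multiplied by bin number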
Settings: c terminus: a fixed tail appended
endpoint: protein stability index
Just the number.

Request: Answer with reported protein stability index of "K6I"
Response: 1.95

Request: Answer with reported protein stability index of "P15V"
Response: 1.99

Request: Answer with reported protein stability index of "P18T"
Response: 2.03

Request: Answer with reported protein stability index of "K6C"
Response: 2.02

Request: Answer with reported protein stability index of "P18F"
Response: 2.02

Request: Answer with reported protein stability index of "V21F"
Response: 2

As a next step, examine the variant that follows.
Request: Answer with reported protein stability index of "G2I"
Response: 1.96

Reference source for all entries: the supplement of paper PMC10567573
